- Test system: Saccharomyces cerevisiae
- ASSAY INFO: protein stability index of tFT-peptide fusion (C-terminal peptide) (PSI (0-1 scale)); higher = more stable (slower turnover);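 also: PSI is a weighted mean of sequencing reads over stability bins, variants kept only with over 10 reads, mCherry proximal and sfGFP distal, peptide attached via GGGS linker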
- STUDY CONDITIONS: genetic background: das1 deletion; temperature: 37 C
Rule: protein stability index under 0.5 gives class 0, otherwise class 1.

{"ENTRY SEQUENCE": "GVRCRLVIRVLG", "TEST SYSTEM": "Saccharomyces cerevisiae", "CLASS": "class 1"}
{"ENTRY SEQUENCE": "TIRKCIIKWIKI", "TEST SYSTEM": "Saccharomyces cerevisiae", "CLASS": "class 1"}
{"ENTRY SEQUENCE": "VVVRARVFFHIF", "TEST SYSTEM": "Saccharomyces cerevisiae", "CLASS": "class 1"}
{"ENTRY SEQUENCE": "VSGVLRSMVRLQ", "TEST SYSTEM": "Saccharomyces cerevisiae", "CLASS": "class 1"}
{"ENTRY SEQUENCE": "GRAVGLANFTIK", "TEST SYSTEM": "Saccharomyces cerevisiae", "CLASS": "class 1"}
{"ENTRY SEQUENCE": "PLLPCRPILFLL", "TEST SYSTEM": "Saccharomyces cerevisiae", "CLASS": "class 1"}
{"ENTRY SEQUENCE": "PAPQAVRIFSLY", "TEST SYSTEM": "Saccharomyces cerevisiae", "CLASS": "class 1"}
{"ENTRY SEQUENCE": "SPPPLFLIVLHL", "TEST SYSTEM": "Saccharomyces cerevisiae", "CLASS": "class 1"}
{"ENTRY SEQUENCE": "PPWRPVALLLLA", "TEST SYSTEM": "Saccharomyces cerevisiae", "CLASS": "class 0"}
{"ENTRY SEQUENCE": "KLRELQVRQQLS", "TEST SYSTEM": "Saccharomyces cerevisiae", "CLASS": "class 1"}
{"ENTRY SEQUENCE": "RWELASKCRLCV", "TEST SYSTEM": "Saccharomyces cerevisiae", "CLASS": "class 1"}
{"ENTRY SEQUENCE": "VCTFLLVSFFLS", "TEST SYSTEM": "Saccharomyces cerevisiae", "CLASS": "class 0"}
{"ENTRY SEQUENCE": "SIFFLVPLVFLS", "TEST SYSTEM": "Saccharomyces cerevisiae", "CLASS": "class 1"}
{"ENTRY SEQUENCE": "SAWGQAFWCQMG", "TEST SYSTEM": "Saccharomyces cerevisiae", "CLASS": "class 1"}
{"ENTRY SEQUENCE": "CVGRPIALAVRT", "TEST SYSTEM": "Saccharomyces cerevisiae", "CLASS": "class 1"}
{"ENTRY SEQUENCE": "VFWVLVSFLFYV", "TEST SYSTEM": "Saccharomyces cerevisiae", "CLASS": "class 0"}
{"ENTRY SEQUENCE": "YIYIFLVWGWYC", "TEST SYSTEM": "Saccharomyces cerevisiae", "CLASS": "class 0"}
{"ENTRY SEQUENCE": "CLVSLPILLFFR", "TEST SYSTEM": "Saccharomyces cerevisiae", "CLASS": "class 0"}

---

- Test system: Saccharomyces cerevisiae
- ASSAY INFO: protein stability index of tFT-peptide fusion (C-terminal peptide) (PSI (0-1 scale)); higher = more stable (slower turnover)
- STUDY CONDITIONS: genetic background: wild type; temperature: 30 C
Assign a class from recorded protein stability index; defined classes: low bracket: < 0.6; middle bracket: ≥ 0.6 and < 0.7; high bracket: ≥ 0.7

{"ENTRY SEQUENCE": "FPPHPPPPPPLN", "CLASS": "high bracket"}
{"ENTRY SEQUENCE": "SPAGQRPQVPVS", "CLASS": "middle bracket"}
{"ENTRY SEQUENCE": "YFLCPPTSPHRH", "CLASS": "high bracket"}
{"ENTRY SEQUENCE": "NRDSPPAGEIHA", "CLASS": "middle bracket"}
{"ENTRY SEQUENCE": "CGGSCLQDGGWA", "CLASS": "high bracket"}
{"ENTRY SEQUENCE": "WNRSAFLSSGTI", "CLASS": "middle bracket"}
{"ENTRY SEQUENCE": "ELRSAIRAVPFL", "CLASS": "high bracket"}
{"ENTRY SEQUENCE": "EKNTNVDHNRNF", "CLASS": "high bracket"}
{"ENTRY SEQUENCE": "ASPSSAAQPLSP", "CLASS": "middle bracket"}
{"ENTRY SEQUENCE": "LLALHPLRSWPP", "CLASS": "middle bracket"}
{"ENTRY SEQUENCE": "TTLATVLRTFPG", "CLASS": "high bracket"}
{"ENTRY SEQUENCE": "FFFFFLLFFLRV", "CLASS": "low bracket"}
{"ENTRY SEQUENCE": "AFFVAFLPLLSR", "CLASS": "low bracket"}
{"ENTRY SEQUENCE": "GWFCLFFVVSTG", "CLASS": "low bracket"}
{"ENTRY SEQUENCE": "VVGAGDWRWGVW", "CLASS": "high bracket"}
{"ENTRY SEQUENCE": "SLRNGESTGLCF", "CLASS": "high bracket"}
{"ENTRY SEQUENCE": "DGTRVSFLGHKG", "CLASS": "middle bracket"}
{"ENTRY SEQUENCE": "RCGPPTAPSLDP", "CLASS": "middle bracket"}
{"ENTRY SEQUENCE": "PLFLRPLSVPVL", "CLASS": "low bracket"}
{"ENTRY SEQUENCE": "PLPSHSRSRHPR", "CLASS": "high bracket"}
{"ENTRY SEQUENCE": "GCRRGGGFLECV", "CLASS": "middle bracket"}
{"ENTRY SEQUENCE": "GTWCLAMARFCA", "CLASS": "low bracket"}
{"ENTRY SEQUENCE": "LGPGGVAWGAWW", "CLASS": "high bracket"}
{"ENTRY SEQUENCE": "FSPLVCLLFFLF", "CLASS": "low bracket"}
{"ENTRY SEQUENCE": "FSFVPRHGVSFR", "CLASS": "middle bracket"}
{"ENTRY SEQUENCE": "VLPCSLVPLRLH", "CLASS": "low bracket"}
{"ENTRY SEQUENCE": "TIRKCIIKWIKI", "CLASS": "low bracket"}
{"ENTRY SEQUENCE": "CLVKIVIFFLFS", "CLASS": "low bracket"}
{"ENTRY SEQUENCE": "PPPAPDRATIRR", "CLASS": "middle bracket"}
{"ENTRY SEQUENCE": "VWASVRRIFRVG", "CLASS": "low bracket"}
{"ENTRY SEQUENCE": "VSWSVSALIYLK", "CLASS": "low bracket"}
{"ENTRY SEQUENCE": "LLISPFLFLLVC", "CLASS": "low bracket"}
{"ENTRY SEQUENCE": "GVGWPGVGAGGG", "CLASS": "middle bracket"}
{"ENTRY SEQUENCE": "GCRLRHRLVRIV", "CLASS": "low bracket"}
{"ENTRY SEQUENCE": "VMGGWGCGVLRG", "CLASS": "high bracket"}
{"ENTRY SEQUENCE": "TFRPWPLHILAL", "CLASS": "low bracket"}
{"ENTRY SEQUENCE": "NKRKIKKKKKRG", "CLASS": "middle bracket"}
{"ENTRY SEQUENCE": "PDGFTFVFSPES", "CLASS": "middle bracket"}
{"ENTRY SEQUENCE": "YLGCPSHLALPL", "CLASS": "high bracket"}
{"ENTRY SEQUENCE": "SWTEPISNTVLP", "CLASS": "high bracket"}
{"ENTRY SEQUENCE": "PSFLSPCPPFLS", "CLASS": "high bracket"}
{"ENTRY SEQUENCE": "IHSRAAVGEYTG", "CLASS": "middle bracket"}
{"ENTRY SEQUENCE": "FRRSFPFPLFLR", "CLASS": "low bracket"}
{"ENTRY SEQUENCE": "PLSDPLRVILIM", "CLASS": "low bracket"}
{"ENTRY SEQUENCE": "PPPPPPPAPPLP", "CLASS": "middle bracket"}
{"ENTRY SEQUENCE": "FLPTALTQPLIT", "CLASS": "middle bracket"}
{"ENTRY SEQUENCE": "SFCVLLQFCVLV", "CLASS": "low bracket"}
{"ENTRY SEQUENCE": "RRPLAPHPPLPP", "CLASS": "middle bracket"}
{"ENTRY SEQUENCE": "QSPSALAEGPDD", "CLASS": "middle bracket"}
{"ENTRY SEQUENCE": "GVWSLDWFLLVW", "CLASS": "low bracket"}
{"ENTRY SEQUENCE": "NGLPGNLYAGKT", "CLASS": "middle bracket"}
{"ENTRY SEQUENCE": "WVGVVLLSVVGG", "CLASS": "low bracket"}
